Molecular target: T1, hOX40-EC-His (human, UniProt P43489 29-214)
T1 construct: extracellular domain; bought protein; also called recombinant human OX40 antigen protein; human OX40 extracellular segment antigen; not shown: 6 His label
T1 sequence (looked up): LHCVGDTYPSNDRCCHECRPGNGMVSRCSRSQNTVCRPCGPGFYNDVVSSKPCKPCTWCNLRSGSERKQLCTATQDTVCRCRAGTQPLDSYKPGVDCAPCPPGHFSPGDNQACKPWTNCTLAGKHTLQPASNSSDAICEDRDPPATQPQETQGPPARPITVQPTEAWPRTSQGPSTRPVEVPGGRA
Assay: ELISA, supernatant diluted 100 times, coated OX40 (CK60)
endpoint: 450 nm light absorption

Please report the measured 450 nm light absorption for 28E3-4 (antibody, V domains shown, hybridoma antibody, tested as culture supernatant) VH: QVQLQESGPGLVKPSGTLSLTCAVSGGSISRSNWWTWVRQSPGKGLEWIGEIYHSGNTNYNPSLKSRVTISLDKSKNQFSLKLSSVTAADTAVYYCASSGSLYMDVWGKGTTVTVSS VL: DIQMTQSPSSLSASVGDRVTISCRASQSTSSYLNWYQQKPGKAPRLLIYGASSLQSGVPSRFSGSGSGTDFILTISSLQPEDFATYYCQQSYSIPITFGQGTRLEIKR
2.26 OD450

Please report the measured 450 nm light absorption for 21F3-11 (antibody, V domains shown, hybridoma antibody, tested as culture supernatant) VH: QVQLQESGPGLVKPSGTLSLTCAVSGGSISSSNWWSWVRQPPGKGLEWIGEIYHGGSTNYNPSLKSRITISVDKSKNQFSLKLSSVTAADTAMYYCATLPGYSSGWFDSWGQGTLVTVSS VL: EIVLMQSPGTLSLSPGERATLSCRASQSVSSSYLAWYQQKPGQAPSLLIYGASNRASGIPDRFSGSGSGTDFTLTITRLEPEDFAVYYCQQYGSSPLTFGGGTRVEIKR
2.61 OD450

All figures here come from patent US20240209104A1.
